# tested system: Dual specificity protein phosphatase 3 (Homo sapiens)
# experiment description: VHR1 phosphatase inhibitors, biochemical (AID 1878)
# condition context: recombinant VHR phosphatase, fluorogenic substrate; at 13.3 µM
In all, about 1,000 compounds went through this assay and about 200 (20%) were called active. No stated cut-off is given here; in the data, active means inhibition above about 55%; inactive means the rest. The list is a sample of the results. Entries with a potency or affinity are not part of this list.
Pick one: true (1) for active, false (0) for inactive

Q: Write down the call the test reported for this molecule. Item: COc1ccc(OCC(=O)Nc2nc3c(s2)CCCC3)cc1
Result: false (0)

Q: What is the recorded call for this molecule in the test? COc1ccc(C(=O)CCC(=O)Nc2ccc(N3CCCCC3)cc2)cc1OC
Result: false (0)

Q: So what was the verdict on Cc1ccc(NC(=O)NN2CCN(C)CC2)cc1C in this test?
Result: false (0)

Q: Look up the recorded call for COCCN(C(=O)c1ccc(OC2CCN(S(=O)(=O)N(C)C)CC2)cc1)C(C)C in this test.
Result: false (0)

Q: Each molecule tested received a call. Report the one for Cc1cc(C)c(S(=O)(=O)Cc2ccccc2)c(Cl)n1 .
Result: false (0)

Q: What call does the record list for COc1cc(NC(=O)CCc2nnc3ccc(N4CCCCC4)nn23)cc(OC)c1OC ?
Result: false (0)

Q: Tell me the recorded outcome of this test for CCCCCc1nnc(NC(=O)Cc2ccc([N+](=O)[O-])cc2)s1 .
Result: false (0)

Q: Could you kindly confirm the outcome this assay logged for Cc1ccccc1S(=O)(=O)Cc1ccc(C(=O)NCCCN2CCCC2)o1 ?
Result: false (0)

Q: What outcome does the record of this test show for Cc1ccc(NC(=O)Nc2nnc(-c3ccncc3)s2)cc1C ?
Result: true (1)

Q: Would you mind telling me which call this test gave O=C(Nc1ccccc1Cl)c1cc2ccccc2o/c1=N\O ?
Result: false (0)

Q: Fill in: this test's call for Cc1ccc(NC(=O)Cn2c(O)c(N=NC(N)=S)c3ccccc32)cc1 is ___
Result: false (0)

Q: # outcome recorded in this test, key = Cc1cccc(NC(=O)Cc2nnc(NC(=O)Nc3ccccc3F)s2)c1
Result: false (0)

Q: Could you check what this test reported for COc1ccc(-c2csc3ncn(Cc4ccccc4)c(=O)c23)cc1 ?
Result: false (0)

Q: How did this test come out for CC(C)/C=C/CN1CCCC(N2CCN(c3cccc(Cl)c3)CC2)C1 (stereo not drawn) ?
Result: false (0)

Q: How did this test come out for CCOC(=O)c1ccc(NC(=O)CSc2nnc(CNC(=O)c3ccco3)o2)cc1 ?
Result: false (0)

Q: Entry COc1ccc(C2CC(=O)C(C=NCCO)=C(O)C2)cc1 (stereo not drawn) : call = ?
Result: false (0)

Q: Record request — test call for O=[N+]([O-])c1cccc2c([As](=O)(O)O)cccc12
Result: false (0)

Q: I would be grateful if you could indicate the recorded call for CC1CCCN(CCCNC(=O)c2ccc3c(c2)N(Cc2ccccc2F)C(=O)c2ccccc2S3(=O)=O)C1 (stereo not drawn) .
Result: false (0)

Q: Assay result, entry CCOc1cc(C2Nc3ccccc3NC3=C2C(=O)CC(C)(C)C3)ccc1OC(C)=O (stereo not drawn) — outcome?
Result: false (0)

Q: # fetch the recorded call for Cc1cc(C)cc(NCc2cc(=O)oc3cc(C)c(O)cc23)c1 here
Result: false (0)

Q: Hello, I am checking results. What call was entered for Cc1ccc(NC(=O)NCCN2CCCCC2)cc1C ?
Result: false (0)

Q: # fetch the recorded call for CC(C)c1ccc(N2C(=NC(=O)C3CCCO3)SC3CS(=O)(=O)CC32)cc1 (stereo not drawn) here
Result: false (0)

Q: Write down the call the test reported for this molecule. Item: C=CCC(=O)NC1CC(C)(C)Cc2c1cnn2-c1ccc(C)cc1 (stereo not drawn)
Result: false (0)
